// reported self-cleavage for each item listed
B1: LINE1-mini (parent)
chain: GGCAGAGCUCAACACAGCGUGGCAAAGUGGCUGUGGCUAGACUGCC

Variants of: B1
Test: self-cleavage, relative activity (ratio to wild type); higher = more cleavage; in vitro, sequencing; the parent is a self-cleaving ribozyme
measurement_type: self-cleavage

> print(dat)
      variant  assay.result
 1  C13U A26G          0.14
 2   G1U G21A          0.77
 3   G5A A11G          0.03
 4  A14G G33U          0.16
 5  G21C C37A          0.02
 6  G33A A39G          0.09
 7  C37U C46G          0.04
 8    A6U U9C          0.08
 9  C23U U32A           0.2
10  C23A G33C          0.05
11  C15U A39C          0.18
12    C3U U9C          0.07
13  C18U C45A          0.79
14   A4G C23A          0.44
15   A6C G17C          1.47
16   A6C G19U          0.56
17  G29C C45U          0.67
18   A6G U20A          0.04
19   G2U A39G          0.04
20  U34C U38A          0.11
21  C10G G36A          0.01
22  G22C C31U          0.26

Origin of the recorded values: the RNAGym collection of RNA variant scans (doi:10.7554/elife.90254)
